system: CAKI-1 renal; assay: NCI tumour cell line growth inhibition, 48 h; in the data active = GI50 below about 0.43 µM; inactive = the rest
Lab note: assign the record to one of TRUE = active, FALSE = inactive

Take a look at these entries with their results.
compound	label value
O=C1/C(=C\c2ccc(Cl)cc2)CN(C(=O)c2ccccc2)C/C1=C\c1ccc(Cl)cc1	FALSE
N#CC1(C#N)C2C=CC(C3CC=CC32)C1(C#N)C#N (stereo not given)	FALSE
O=C(/C=C/c1cccnc1)c1ccccc1	FALSE
Cc1ccc([I+]c2ccc(C)cc2)cc1	FALSE

Given CC(=O)NS(=O)(=O)c1ccc(-n2nc(-c3ccccc3)cc2-c2cc(O)ccc2O)cc1 , state the outcome it received in this test. FALSE

Which result was noted for this compound in the test: NCCSC1(O)C(=O)c2ccccc2-c2ccccc21 (stereo not given) FALSE
